Assay: Thermodynamic solubility
Type: physicochemical
Conditions: aqueous buffer, thermodynamic from solid; 0.05M buffer pH 9 - Boric Acid
QUANTITY MEASURED: solubility thermodynamic

| MOLECULE | QUANTITY MEASURED | ASSAY RESULT |
| --- | --- | --- |
| N#Cc1ccc(C(F)(c2ccc(C#N)cc2)n2cncn2)cc1 [Form A leflutrozole] | solubility thermodynamic | < 30 µg/mL |

###

Assay: Thermodynamic solubility
Assay type: physicochemical
Settings: aqueous buffer, thermodynamic from solid; pH 12 - 0.1N Sodium Hydroxide

| COMPOUND | solubility thermodynamic |
| --- | --- |
| N#Cc1ccc(C(F)(c2ccc(C#N)cc2)n2cncn2)cc1 [Form A leflutrozole] | < 30 µg/mL |

###

Assay: Thermodynamic solubility
Format: physicochemical
Conditions: 20% hydroxypropyl β-cyclodextrin in water, aqueous with cosolvent or surfactant or cyclodextrin, thermodynamic from solid

| COMPOUND | ENDPOINT UNIT | solubility thermodynamic |
| --- | --- | --- |
| N#Cc1ccc(C(F)(c2ccc(C#N)cc2)n2cncn2)cc1 [Form A leflutrozole] | mg/mL | 0.87 |
